Taken from patent US11242337B2.

- TESTED SYSTEM: NHE3 (Homo sapiens, UniProt P48764)
- Construct: expressed in transfected cells
- Sequence (P48764 26-834): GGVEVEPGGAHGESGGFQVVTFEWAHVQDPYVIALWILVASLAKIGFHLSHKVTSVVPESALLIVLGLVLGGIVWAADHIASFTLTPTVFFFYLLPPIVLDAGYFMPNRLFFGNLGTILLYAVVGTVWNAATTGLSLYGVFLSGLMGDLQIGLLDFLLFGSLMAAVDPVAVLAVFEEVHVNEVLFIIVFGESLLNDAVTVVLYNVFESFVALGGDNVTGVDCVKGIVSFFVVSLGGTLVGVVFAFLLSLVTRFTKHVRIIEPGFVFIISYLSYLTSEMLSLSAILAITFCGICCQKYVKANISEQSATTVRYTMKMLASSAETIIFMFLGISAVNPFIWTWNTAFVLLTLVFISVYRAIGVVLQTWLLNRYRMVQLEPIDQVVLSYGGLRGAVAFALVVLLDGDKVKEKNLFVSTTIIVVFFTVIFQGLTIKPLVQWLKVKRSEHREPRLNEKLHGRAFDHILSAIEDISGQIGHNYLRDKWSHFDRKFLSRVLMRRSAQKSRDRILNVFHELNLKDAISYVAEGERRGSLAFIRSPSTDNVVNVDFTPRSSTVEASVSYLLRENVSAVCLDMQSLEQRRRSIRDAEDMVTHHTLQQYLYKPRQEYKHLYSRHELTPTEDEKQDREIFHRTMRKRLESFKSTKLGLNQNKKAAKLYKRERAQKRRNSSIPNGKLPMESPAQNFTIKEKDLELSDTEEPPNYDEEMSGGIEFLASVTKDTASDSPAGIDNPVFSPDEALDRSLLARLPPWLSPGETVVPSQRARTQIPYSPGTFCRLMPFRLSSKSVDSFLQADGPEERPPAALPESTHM
- Sequence (Q99653 2-195 partner limits assumed): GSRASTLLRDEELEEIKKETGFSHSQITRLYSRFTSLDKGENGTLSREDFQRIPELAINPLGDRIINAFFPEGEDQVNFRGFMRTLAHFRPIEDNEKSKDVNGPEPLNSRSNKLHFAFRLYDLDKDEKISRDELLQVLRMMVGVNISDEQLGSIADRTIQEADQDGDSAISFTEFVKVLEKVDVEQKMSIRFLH
- EXPERIMENTAL PROTOCOL: Cell-based assay of NHE-3 activity (persistent inhibition), human
- ASSAY CONTEXT: human Persistence, 60 min incubation then washout
Counter-ions that a name gives are not always drawn.
# IC50 values compiled below

Past entries and their recorded results:
>>> value_reported("CN1CCN([C@H]2Cc3c(Cl)cc(Cl)cc3[C@@H]2Oc2ccc(S(=O)(=O)NCCOCCOCCNC(=O)NCCCCNC(=O)NCCOCCOCCNS(=O)(=O)c3ccc(O[C@H]4c5cc(Cl)cc(Cl)c5C[C@@H]4N4CCN(C)CC4)cc3)cc2)CC1")
"100 to 1000 nM"
>>> value_reported("O=C(NCCCCNC(=O)NCCOCCOCCNS(=O)(=O)c1ccc(O[C@H]2c3cc(Cl)cc(Cl)c3C[C@@H]2N2CC3CCC2CC3)cc1)NCCOCCOCCNS(=O)(=O)c1ccc(O[C@H]2c3cc(Cl)cc(Cl)c3C[C@@H]2N2CC3CCC2CC3)cc1")
"100 to 1000 nM"
>>> value_reported("N[C@@H]1CCCN([C@H]2Cc3c(Cl)cc(Cl)cc3[C@@H]2Oc2ccc(S(=O)(=O)NCCCCCCCCNC(=O)NCCCCNC(=O)NCCCCCCCCNS(=O)(=O)c3ccc(O[C@H]4c5cc(Cl)cc(Cl)c5C[C@@H]4N4CCC[C@@H](N)C4)cc3)cc2)C1")
"> 1000 nM"

Lookup: IC50 / NHE3 (Homo sapiens, UniProt P48764) / C[C@@H](COCCOCCNC(=O)NCCCCNC(=O)NCCOCCOC[C@H](C)NS(=O)(=O)c1ccc(O[C@H]2c3cc(Cl)cc(Cl)c3C[C@@H]2N2CCC[C@@H](N)C2)cc1)NS(=O)(=O)c1ccc(O[C@H]2c3cc(Cl)cc(Cl)c3C[C@@H]2N2CCC[C@@H](N)C2)cc1 [Example 96, hydrochloride]
< 100 nM

What would you report for CC(C)[C@H](COCCOCCNC(=O)NCCCCNC(=O)NCCOCCOC[C@H](NS(=O)(=O)c1ccc(O[C@H]2c3cc(Cl)cc(Cl)c3C[C@@H]2N2CCC[C@@H](N)C2)cc1)C(C)C)NS(=O)(=O)c1ccc(O[C@H]2c3cc(Cl)cc(Cl)c3C[C@@H]2N2CCC[C@@H](N)C2)cc1 ?
100 to 1000 nM

Item: N#Cc1cc(Cl)cc2c1C[C@H](N1CCNCC1)[C@H]2Oc1ccc(S(=O)(=O)NC(=O)CCCNC(=O)NCCCCNC(=O)NCCCC(=O)NS(=O)(=O)c2ccc(O[C@H]3c4cc(Cl)cc(C#N)c4C[C@@H]3N3CCNCC3)cc2)cc1
100 to 1000 nM
